- target.or.test.system: MERTK (UniProt Q12866)
- Sequence (Q12866 whole entry, looked up): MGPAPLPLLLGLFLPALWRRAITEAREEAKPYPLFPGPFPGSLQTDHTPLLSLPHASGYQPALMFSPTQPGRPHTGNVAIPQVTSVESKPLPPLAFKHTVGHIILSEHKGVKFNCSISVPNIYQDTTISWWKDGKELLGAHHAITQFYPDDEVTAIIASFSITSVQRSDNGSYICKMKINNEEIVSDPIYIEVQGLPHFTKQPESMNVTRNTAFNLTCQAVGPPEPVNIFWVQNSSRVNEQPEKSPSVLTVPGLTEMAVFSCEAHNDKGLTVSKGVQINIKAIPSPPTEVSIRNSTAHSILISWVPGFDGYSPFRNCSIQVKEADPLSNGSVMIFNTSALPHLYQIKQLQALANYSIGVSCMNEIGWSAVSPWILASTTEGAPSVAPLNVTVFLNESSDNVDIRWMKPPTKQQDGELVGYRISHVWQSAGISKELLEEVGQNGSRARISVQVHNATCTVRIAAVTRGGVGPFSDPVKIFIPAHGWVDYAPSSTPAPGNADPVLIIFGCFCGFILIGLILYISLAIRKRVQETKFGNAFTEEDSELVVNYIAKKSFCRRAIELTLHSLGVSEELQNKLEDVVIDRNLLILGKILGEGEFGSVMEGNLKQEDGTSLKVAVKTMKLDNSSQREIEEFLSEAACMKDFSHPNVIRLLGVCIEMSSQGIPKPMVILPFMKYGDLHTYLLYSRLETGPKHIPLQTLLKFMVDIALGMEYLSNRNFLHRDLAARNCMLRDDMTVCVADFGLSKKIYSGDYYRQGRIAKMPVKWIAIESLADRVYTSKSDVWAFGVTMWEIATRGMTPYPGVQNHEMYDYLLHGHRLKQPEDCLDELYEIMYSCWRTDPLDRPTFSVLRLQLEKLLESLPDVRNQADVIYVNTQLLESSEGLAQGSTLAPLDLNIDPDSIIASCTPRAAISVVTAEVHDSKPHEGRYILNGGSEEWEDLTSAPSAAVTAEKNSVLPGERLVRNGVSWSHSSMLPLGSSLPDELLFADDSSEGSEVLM
- run.description: phosphorylation enrichment, bacterial display (enrichment ratio); higher = better substrate or ligand; peptides without Tyr show the background
phosphorylation enrichment reference
API note: the answer field is a bare number with no unit suffix.

The cases that follow already have their phosphorylation enrichment on record.
1) SSMNDYNPLEK [MYOC_Y479_I477N] = 0.614
2) GGRKGYGDFSR [RECQL5_Y478] = 0.425
3) DKEKWYPLGTS [PIK3C2G_Y1438_N1442T] = 0.458
4) GSESDYIVMPN [SCARB1_Y133] = 0.538
5) RLLVVYSWTQR [HBB_Y36_P37S] = 1.05
6) LLREWYLPDPF [SIX3_Y225_Q227P_YF] = 0.583

Entry LTRDIYKNDFF [ROS1_Y2110_A2106T_YF] : reported phosphorylation enrichment = ? 0.723

What about PNQRRYVFFFS [PTEN_Y174_S170N_YF] ? 0.491

What about IMWDSYTTNKV [GNB3_Y85_V81M] ? 0.305

What about RRVEPYGENFN [APOA4_Y310] ? 0.561

What about SGSIHYSRVPR [GLB1_Y57] ? 0.64

What about CTNIHYNYMCN [TP53_Y234_T231N] ? 0.418

What about KDAGDYKFKAK [LRIT3_Y326_C328Y_YF] ? 0.443

====

SH2 binding enrichment reference
- target.or.test.system: c-Src SH2;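 note: peptide library displayed on the E. coli surface as eCPX fusions, selected cells deep-sequenced, score is each peptide's frequency after selection divided by its frequency in the input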
- run.description: SH2 binding enrichment of the phosphorylated peptide, bacterial display (enrichment ratio); higher = better substrate or ligand; peptides without Tyr show the background
API note: the answer field is a bare number with no unit suffix.

The cases that follow already have their SH2 binding enrichment on record.
1) PVGVLYKVKVY [PTS_Y128] = 0.398
2) VFPATYHPDHW [EFCAB12_Y544_YF] = 0.519
3) ACCLLYCGDVV [TUBA4A_Y319_R320C] = 0.562
4) QTEAEYRFIYM [PTPN11_Y511_Q510E] = 0.423
5) RRIHSYRGRLW [VHL_Y112_H115R] = 0.372

Entry EWKNNYPRLRE [OPA1_Y582] : reported SH2 binding enrichment = ? 0.453

What about KFVKMYDNHQL [MYO9A_Y203_YF] ? 0.891

What about RLLRGHDQYAY [HLA-B_Y137] ? 1.29

What about VFGEEYEEQPR [ZMYM2_Y1033] ? 0.679

What about TNFPLYLRSLE [MTM1_Y71_R69P_YF] ? 0.675

====

- target.or.test.system: FGFR1 (UniProt P11362)
- Sequence (P11362 whole entry, looked up): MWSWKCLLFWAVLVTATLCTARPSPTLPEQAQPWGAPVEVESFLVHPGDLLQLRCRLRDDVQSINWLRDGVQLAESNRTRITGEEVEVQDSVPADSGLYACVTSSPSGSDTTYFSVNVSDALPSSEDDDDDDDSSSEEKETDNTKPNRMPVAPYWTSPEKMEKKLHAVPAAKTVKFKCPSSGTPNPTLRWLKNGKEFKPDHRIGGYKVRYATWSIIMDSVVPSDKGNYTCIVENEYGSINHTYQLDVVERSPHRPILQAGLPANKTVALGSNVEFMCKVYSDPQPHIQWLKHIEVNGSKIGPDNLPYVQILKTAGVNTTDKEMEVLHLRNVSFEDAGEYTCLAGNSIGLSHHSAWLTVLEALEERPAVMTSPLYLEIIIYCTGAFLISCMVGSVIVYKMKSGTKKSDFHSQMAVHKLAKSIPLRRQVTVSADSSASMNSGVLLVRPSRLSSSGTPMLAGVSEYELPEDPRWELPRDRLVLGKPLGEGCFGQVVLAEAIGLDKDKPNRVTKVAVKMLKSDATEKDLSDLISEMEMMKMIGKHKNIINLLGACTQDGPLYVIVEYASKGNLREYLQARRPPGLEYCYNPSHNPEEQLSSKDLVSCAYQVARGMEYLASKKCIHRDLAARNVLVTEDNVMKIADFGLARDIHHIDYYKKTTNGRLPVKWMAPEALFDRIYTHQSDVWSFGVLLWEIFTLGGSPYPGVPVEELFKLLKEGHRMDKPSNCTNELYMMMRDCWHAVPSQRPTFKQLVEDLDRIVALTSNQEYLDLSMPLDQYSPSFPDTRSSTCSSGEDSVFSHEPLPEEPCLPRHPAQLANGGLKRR
- run.description: phosphorylation enrichment, bacterial display (enrichment ratio); higher = better substrate or ligand; peptides without Tyr show the background
readout.kind: phosphorylation enrichment
API note: the answer field is a bare number with no unit suffix.

The cases that follow already have their phosphorylation enrichment on record.
1) GEYYRYLAEVA [YWHAG_Y133_D129E] = 9.65
2) DPFHVYIKNHV [KCNE3_Y95_R99H_YF] = 0.469
3) NPSFNYEIVNQ [DYNC1H1_Y3379_R3384Q_YF] = 0.763
4) SREDIYKRNIE [PDE4DIP_Y45] = 0.5
5) MAFDRYVAVCA [OR52J3_Y125] = 0.519
6) KDHLDYKYQPR [SOX9_Y172_P170L] = 0.462
7) SSSAIYDNPDL [DCP1B_Y191_N195D] = 0.519
8) AMCVRYDGVEV [ADAMTSL2_Y594] = 0.7

Entry NDQPDYDSVAS [GIT2_Y392] : reported phosphorylation enrichment = ? 0.522

What about QMVGMYASFFM [AVPR2_Y124_S127F_YF] ? 0.676

What about VFGEEYEEQPR [ZMYM2_Y1033] ? 0.614

What about DLSEVYKPRRK [CCDC93_Y176] ? 0.352
